Measured OD450 values are reported for all entries that follow.
Biological target: T1, human MSLN-R3-his protein (human, UniProt Q13421 487-598)
T1 construct: it is put last here; also called human MSLN-R3 protein; hMSLN-R3-his; not shown: His tag
T1 sequence (Q13421 495-606): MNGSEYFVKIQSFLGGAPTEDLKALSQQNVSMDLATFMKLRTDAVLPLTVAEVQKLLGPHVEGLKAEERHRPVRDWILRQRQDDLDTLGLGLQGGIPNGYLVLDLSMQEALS
Assay: ELISA on coated antigen, antibody 20 nM
Please respond with the number in OD and leave the unit unwritten.

Q) // OD450 lookup, key: Tab106 (YP218, hIgG1) (antibody, V domains shown, Control antibody; YP218 VH and VL recombined into human IgG1 CH and CL expression vectors; also called YP218 human IgG1 antibody) VH: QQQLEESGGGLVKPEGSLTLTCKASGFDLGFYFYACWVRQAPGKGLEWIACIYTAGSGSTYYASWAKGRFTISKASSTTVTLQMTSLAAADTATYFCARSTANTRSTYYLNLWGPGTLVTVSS VL: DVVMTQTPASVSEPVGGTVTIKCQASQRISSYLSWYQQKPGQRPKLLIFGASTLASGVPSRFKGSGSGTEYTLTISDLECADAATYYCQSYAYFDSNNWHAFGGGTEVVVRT
A) 2.26

Q) Continue with S009-F7.12.13 (antibody, human IgG1, kappa, V domains shown, Human-murine chimeric antibody, human IgG1 heavy and kappa light constant regions) VH: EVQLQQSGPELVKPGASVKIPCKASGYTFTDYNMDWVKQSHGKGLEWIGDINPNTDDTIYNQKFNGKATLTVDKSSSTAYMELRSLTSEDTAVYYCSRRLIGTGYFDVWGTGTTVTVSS VL: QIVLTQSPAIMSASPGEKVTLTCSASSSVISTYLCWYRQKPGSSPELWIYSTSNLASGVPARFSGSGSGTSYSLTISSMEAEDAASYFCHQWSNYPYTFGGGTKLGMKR
A) 2.67

***
Q) // OD450 lookup, key: S009-F7.6.17 (antibody, human IgG1, kappa, V domains shown, Human-murine chimeric antibody, human IgG1 heavy and kappa light constant regions) VH: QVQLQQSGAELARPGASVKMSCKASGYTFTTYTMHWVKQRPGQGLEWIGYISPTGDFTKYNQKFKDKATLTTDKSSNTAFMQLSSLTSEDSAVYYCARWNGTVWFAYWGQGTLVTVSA VL: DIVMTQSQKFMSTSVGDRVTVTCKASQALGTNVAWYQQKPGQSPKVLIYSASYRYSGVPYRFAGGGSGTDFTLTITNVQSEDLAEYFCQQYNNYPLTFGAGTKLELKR
A) 2.81
